- Test system: LXRb:RXRa (NR concentration 270 nM, RXRa partner concentration 90 nM)
- experimental.protocol: PBM binding z-score (relative to random genomic background probes); higher = stronger binding; sequences stand for … in GC…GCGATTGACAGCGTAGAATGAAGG
metric: PBM binding z-score

sequence.chain | experimental.value
TCTTGTAGATCACTAGAGGTTAAGAAAGTGCGCT | 2.67
ATCGAAAGGTCGAGGTGAATATAGAGAAAGGGAA | 2.79
TCTGGTAGATCAGCAGGTTAAGAAAGCTGGCCAA | 0.308
ACTAGCAGGCCAAGTTGGGGTCACTCAAACAAAG | 4.07
CGTCAAAGTTAAACTAAGGTAACGTAAAGCACGC | 0.346
AACACAGGGTCACTAGGCCAGAGTAGGTACGAAT | 3.63
TAGCCTAGGTCATTGGGTCAGTATAGTACGCATC | 3.21
AGAATGAGGTTACCAAAGATCGGGGAAACGCTTG | 2.39
TCTAATAGTTGAAGGGCAACCGACGAGTCCGTTT | 0.595
GGAACGAGGGCATTAGAGTTGATAGCATGGCGAT | 0.257
TAGCCTAGGTCTTTGGGCCAGTATAGTACGCATC | -0.788
TAGCCTAGGTCGTTGGGCCAGTATAGTACGCATC | 0.178

###

- Test system: LXRb:RXRa (NR concentration 270 nM, RXRa partner concentration 90 nM)
- experimental.protocol: PBM binding z-score (relative to random genomic background probes); higher = stronger binding; sequences stand for … in GC…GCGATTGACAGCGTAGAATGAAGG
// thresholds for PBM binding z-score classes: low bin: < 0.2; mid bin: ≥ 0.2 and < 1; high bin: ≥ 1

sequence.chain | class.name
AGGATGAGGTTACCAAAGATCAGGGAAACGCTTG | high bin
TGAATGAGGTTATAAGAACAGGGAACGTTGCAAA | high bin
CGTCCAAGGTCAGAGATGTCAGTGAATGCCGAGT | high bin
TCTTGTAGAACAAGCAGGTTAAGAAAGCCTGAGT | low bin
AGAACGAGGGCACGCTGAGTTGACAGCAGAGTAG | mid bin
CGAACTAGGCCAGAACAGGACAGTGAAGGATGAT | low bin
ATACCAAGGTGATCGTGAGCTCGTTGATACTAAC | low bin
CCTAGCAGGCCAATCTGGGTCAATCAAGGCTTGA | mid bin
CAGCCTGGGTCAGGGCCAGTATAGGAGGAACGTT | mid bin
GCTAGCAGGCCATGTGGGTCACTCAATGACGGGC | low bin
ACTTACGGGTCAACGAGGTTGTAGCACGCGTATA | high bin
GCTAGCAGGCCATTTGGCTCACTCAATGACGGGC | low bin
TCATATAGTTAAATGCTAGGTGAAAGTCCGATCT | mid bin
ACAGACAGGTCATGAAGGTAACTCAGGCTATCAT | high bin
GCATATAGGTAATACAAGGTGAAAGTGCGATTGT | mid bin
AGAACGAGGGCAATGACTTGATAGCACGGGTGGC | low bin
CTACCATGGTGAACAAGGTCGTTGATTACTATTC | high bin
CGTCCAAGGTCAATGCCAGGTCAGTGAAAGCATT | high bin
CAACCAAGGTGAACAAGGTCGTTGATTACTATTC | high bin
TCATATAGGTAATTCAGGTGAAAGTCGGCATCTA | high bin
CGAACGAGGGCAGGAGTTGATAGCAAATGCCGAT | low bin
CCTTACGGGTCAAGGTTATAGTACGGGTGGTACG | high bin
ATCTCTAGGTAAGACTCAGTTGAGTGAAGAACGC | mid bin
ATCGAAAGGTCGAAGGTGGGTATACCCACCCGAA | high bin
GCGACTGGGGCATCAGCAGGTGACCATAACTTAA | mid bin
TCATAAAGGTAAATGCTAGGTGAAAGTCCGATCT | mid bin

###

- System: PPARg:RXRa IVT, anti-PPARg (NR concentration 270 nM, RXRa partner concentration 90 nM)
- experimental.protocol: PBM binding z-score (relative to random genomic background probes); higher = stronger binding; sequences stand for … in GC…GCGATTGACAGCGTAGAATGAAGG
metric: PBM binding z-score

sequence.chain | experimental.value
AGAATGAGGTTATACGTAGATCAGCGAAGAAAGT | 2.33
CAGACAGGGTCAGCTAGGCCAGAGTAGGGACGGC | 1.7
TCATTTAGGTAAAAGGTGAAAGTCGGTGTGGTAA | 4.91
TGAATGAGTTTATAAGATCAGGGAACGTTGCAAA | -0.179
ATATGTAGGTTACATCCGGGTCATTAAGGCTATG | 7.28
AGAATGAGGTTATTAAGATCACGGAATTGCGGTC | 3.23
TATACAGGGTCAAAGGCCAGATTACGAATGTCGA | 4.84
TCTAGCAGGCCAGCGGGTCACTCAAGAGGTACGG | 1.03
ACTAGCAGGCCCAGGGTCACTCAAGATTAGTCCG | 0.714
CCAGACAGGTGAGAGGGTAACTCAGCCTCGATTA | 1.58
TCTTATAGATCAGCAGGTTAAGAAAGCTGGCCAA | 0.0176
TTACCAAGGTGAAAGGTCGATGATGCACGCCTTG | 4.78

###

- System: THRa:RXRa (NR concentration 90 nM, RXRa partner concentration 90 nM)
- experimental.protocol: PBM binding z-score (relative to random genomic background probes); higher = stronger binding; sequences stand for … in GC…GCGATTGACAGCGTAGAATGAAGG
Hi, to clarify the labels: Criterion met covers PBM binding z-score from 2 upward, Criterion not met covers anything below 2.

sequence.chain | class.name
TCTTGTAGATCAAAGATTAAGAAAGCCGAAGCCT | Criterion not met
CCATACGGGTCACTGACAGGTTATAGCATTTGGA | Criterion met
CGTATTAGTTGACCATAAGGGCAACCGAAGCTCG | Criterion not met
CGAACTAGGTCAGAACCGGACAGTGAAGGATGAT | Criterion not met
CCTAGCAGGCCCATCTGGGTCACTCAAGGCTTGA | Criterion met
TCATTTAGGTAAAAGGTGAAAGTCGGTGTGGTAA | Criterion met
CGAACTAGATCAAGGACAGTGAATCTCCGCACGC | Criterion not met
CAGACTAGGTCAAGGTCAAAGTCGGTTTGTGCCA | Criterion met
TCTAGCAGGCCAGGGGGTCACTCAAGAGGTACGG | Criterion met
TAGCCTAGGTCATGCAGGGGCCAGTATAGAAAGC | Criterion met
CGTCAAAGTTCATCTAAGGTAACGTAAAGCACGC | Criterion met
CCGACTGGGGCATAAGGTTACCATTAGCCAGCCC | Criterion not met
TCTTGTATATCAAAGGTTAAGAAAGCCGAAGCCT | Criterion not met
TTACCAAGGTGAGCTGAGGCCGTTGATCCAACTC | Criterion met
CGAACGAGGGCACGAGTTGATAGCAAATGCCGAT | Criterion not met
TCTATTAGTTGAAGGACAACCGACGAGTCCGTTT | Criterion not met
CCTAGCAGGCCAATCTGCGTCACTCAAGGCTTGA | Criterion not met
AGAATGAGGTTACCAAAGATCAGGGACACGCTTG | Criterion met
CCTAGCAGGCCACTCTGGGTCACTCAAGGCTTGA | Criterion met
GATACAGGGTCAAGGCCATAGTACGCGTATTGAT | Criterion met
TCTATTAGTTGAAGGGCAGCCGACGAGTCCGTTT | Criterion not met
CCTACTGGGGCAAGGTTACCATAACGCACAGCCA | Criterion not met
TGAATGAGGTTATAAGATCAGGGCACGTTGCAAA | Criterion met
TAGCCTAGGTCAATGGGCCAGTATAGTACGCATC | Criterion met
TTACTAAGGTGAAGGTCGTTGATCCCTCTGTAGA | Criterion met

###

- System: RARa:RXR (NR concentration 270 nM, RXRa partner concentration 90 nM)
- experimental.protocol: PBM binding z-score (relative to random genomic background probes); higher = stronger binding; sequences stand for … in GC…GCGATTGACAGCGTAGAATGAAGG

sequence.chain | assay.system | PBM binding z-score
ATATGTATGTTATCGGGTCATTCAGTTTGCGCAT | RARa:RXR (NR concentration 270 nM, RXRa partner concentration 90 nM) | 2.59
ATCTCTAGATAACAAGTTCAGTGAAAGAGAGGAC | RARa:RXR (NR concentration 270 nM, RXRa partner concentration 90 nM) | 0.0962
GTACCAATGTGAATAGGTCGTTGATGAGTAGGCG | RARa:RXR (NR concentration 270 nM, RXRa partner concentration 90 nM) | 0.0838
AGTCAAAGCTCATCTAGGTAACGTAAGATATGCT | RARa:RXR (NR concentration 270 nM, RXRa partner concentration 90 nM) | -0.0294
CAAACTAGGTCACCGGAAGGTCAAAGTACGCATG | RARa:RXR (NR concentration 270 nM, RXRa partner concentration 90 nM) | 8.16
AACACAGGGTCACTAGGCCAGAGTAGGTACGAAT | RARa:RXR (NR concentration 270 nM, RXRa partner concentration 90 nM) | 4.14
AGTCAAAGCTCACTAGGTAACGTAAGATTCAGCT | RARa:RXR (NR concentration 270 nM, RXRa partner concentration 90 nM) | -0.364
CAAACTAGGTCCCCGGAAGGTCAAAGTCCGCATG | RARa:RXR (NR concentration 270 nM, RXRa partner concentration 90 nM) | 3.99
GCGTATAGGTAATACAAGGTGAAAGTCCGATTGT | RARa:RXR (NR concentration 270 nM, RXRa partner concentration 90 nM) | 1.12
GCTGCTAGGTCAGGTTGGTCAGCTATCGGGTACG | RARa:RXR (NR concentration 270 nM, RXRa partner concentration 90 nM) | 0.73
GGAACGAGGGCATTCGAGTTGAAAGCATGGCGAT | RARa:RXR (NR concentration 270 nM, RXRa partner concentration 90 nM) | 1.18
CCTATTAGTTGACCATAAGGGCAAACGAAGCTCG | RARa:RXR (NR concentration 270 nM, RXRa partner concentration 90 nM) | 1.02
CCGACTGGGCCATCAGGTCATTGATATCAACGTT | RARa:RXR (NR concentration 270 nM, RXRa partner concentration 90 nM) | 1.85
AGAATGAGGTTACCAAAGATCAGGGAGACGCTTG | RARa:RXR (NR concentration 270 nM, RXRa partner concentration 90 nM) | 1.99
TCATATAGGTAAATGCTAGGTGAGAGTCCGATCT | RARa:RXR (NR concentration 270 nM, RXRa partner concentration 90 nM) | 0.343
CCGACTGGGGCAGAAAGGGTACCATACCATCCGG | RARa:RXR (NR concentration 270 nM, RXRa partner concentration 90 nM) | -0.429
AGAATGAGGTTAAGATCAGGGTAACAGAATACAT | RARa:RXR (NR concentration 270 nM, RXRa partner concentration 90 nM) | 2.85

Data origin, for the record: the supplement of paper PMC6555819
